# System: Rattus norvegicus
# protocol: Biodistribution in uterus / blood of immature female rat after 1 hr administration of 3 micro Ci (111 kBq) in the presence of (+E2)
# Assay type: ADME, organism-based
# condition notes: in vivo
experimental readout: uterus/blood %ID/g ratio (%)

C[C@@H]1Cc2cc(O)c(F)cc2[C@H]2CC[C@@]3(C)[C@@H](CC[C@@]3(O)/C=C\I)[C@H]12 : 1.2
C[C@@H]1Cc2c(ccc(O)c2F)[C@H]2CC[C@@]3(C)[C@@H](CC[C@@]3(O)/C=C\I)[C@H]12 : 1.16
C[C@]12CC[C@@H]3c4cc(F)c(O)cc4CC[C@H]3[C@@H]1CC[C@@]2(O)/C=C\I : 1.2

----------
# System: Rattus norvegicus
# protocol: Biodistribution in uterus / spleen, muscle, lungs of immature female rat after 12 hour administration of 3 micro Ci (111 kBq) in the absence of 60 microg estradiol
# Format: ADME, organism-based
# condition notes: in vivo
experimental readout: uterus to nontarget tissue ratio (%)

C[C@]12CC[C@@H]3c4cc(F)c(O)cc4CC[C@H]3[C@@H]1CC[C@@]2(O)/C=C\I : 20.54
CO[C@H]1C[C@@]2(C)[C@@H](CC[C@@]2(O)/C=C/I)[C@@H]2CCc3cc(O)c(F)cc3[C@H]21 : 6.75

P = CO[C@H]1C[C@@]2(C)[C@@H](CC[C@@]2(O)/C=C\I)[C@@H]2CCc3c(ccc(O)c3F)[C@H]21
Q = C[C@]12CC[C@@H]3c4ccc(O)c(F)c4CC[C@H]3[C@@H]1CC[C@@]2(O)/C=C/I
R = C[C@@H]1Cc2cc(O)c(F)cc2[C@H]2CC[C@@]3(C)[C@@H](CC[C@@]3(O)/C=C/I)[C@H]12
Could you please sort these 3 entries by uterus to nontarget tissue ratio from high to low? # list labels per requested ordering P, Q, R
(P: 19.35%, Q: 5.4%, R: 2.55%)

----------
# Test system: Rattus norvegicus
# protocol: Biodistribution in thyroid of immature female rat after 1 hr administration of 3 micro Ci (111 kBq) in the presence of (+E2)
# Format: ADME, organism-based, Thyroid gland
# condition notes: in vivo
experimental readout: ID/g (%)

C[C@@H]1Cc2c(ccc(O)c2F)[C@H]2CC[C@@]3(C)[C@@H](CC[C@@]3(O)/C=C\I)[C@H]12 : 98
C[C@@H]1Cc2cc(O)c(F)cc2[C@H]2CC[C@@]3(C)[C@@H](CC[C@@]3(O)/C=C/I)[C@H]12 : 114
CO[C@H]1C[C@@]2(C)[C@@H](CC[C@@]2(O)/C=C/I)[C@@H]2CCc3cc(O)c(F)cc3[C@H]21 : 243

a = CO[C@H]1C[C@@]2(C)[C@@H](CC[C@@]2(O)/C=C\I)[C@@H]2CCc3c(ccc(O)c3F)[C@H]21
b = C[C@]12CC[C@@H]3c4ccc(O)c(F)c4CC[C@H]3[C@@H]1CC[C@@]2(O)/C=C\I
Short answer wanted: higher ID/g, a or b ? API: response body contains the label of the selected item. a

----------
# Tested on: Rattus norvegicus
# protocol: Biodistribution in muscle of immature female rat after 3 hour administration of 3 micro Ci (111 kBq) in the absence of 60 microg estradiol
# Assay type: ADME, organism-based, Muscle tissue
# condition notes: in vivo
experimental readout: ID/g (%)

Use these answered entries as a reference point.
C[C@@H]1Cc2c(ccc(O)c2F)[C@H]2CC[C@@]3(C)[C@@H](CC[C@@]3(O)/C=C/I)[C@H]12 : 0.43
CO[C@H]1C[C@@]2(C)[C@@H](CC[C@@]2(O)/C=C\I)[C@@H]2CCc3c(ccc(O)c3F)[C@H]21 : 0.48
C[C@@H]1Cc2c(ccc(O)c2F)[C@H]2CC[C@@]3(C)[C@@H](CC[C@@]3(O)/C=C\I)[C@H]12 : 0.28

a = C[C@]12CC[C@@H]3c4cc(F)c(O)cc4CC[C@H]3[C@@H]1CC[C@@]2(O)/C=C/I
b = C[C@]12CC[C@@H]3c4ccc(O)c(F)c4CC[C@H]3[C@@H]1CC[C@@]2(O)/C=C\I
Record comparison, field ID/g: mark the lower of a and b . Respond using the label that marks the chosen record. a
(a: 0.37%, b: 0.82%)
